Each entry below carries its reported Kd.
- test_target: Fc-fusion protein of human PSMA (hPSMA-Fc) (Homo sapiens)
- Construct: purchased Acro Biosystems PSA-H5264
- Sequence (Q04609 44-750 limits assumed): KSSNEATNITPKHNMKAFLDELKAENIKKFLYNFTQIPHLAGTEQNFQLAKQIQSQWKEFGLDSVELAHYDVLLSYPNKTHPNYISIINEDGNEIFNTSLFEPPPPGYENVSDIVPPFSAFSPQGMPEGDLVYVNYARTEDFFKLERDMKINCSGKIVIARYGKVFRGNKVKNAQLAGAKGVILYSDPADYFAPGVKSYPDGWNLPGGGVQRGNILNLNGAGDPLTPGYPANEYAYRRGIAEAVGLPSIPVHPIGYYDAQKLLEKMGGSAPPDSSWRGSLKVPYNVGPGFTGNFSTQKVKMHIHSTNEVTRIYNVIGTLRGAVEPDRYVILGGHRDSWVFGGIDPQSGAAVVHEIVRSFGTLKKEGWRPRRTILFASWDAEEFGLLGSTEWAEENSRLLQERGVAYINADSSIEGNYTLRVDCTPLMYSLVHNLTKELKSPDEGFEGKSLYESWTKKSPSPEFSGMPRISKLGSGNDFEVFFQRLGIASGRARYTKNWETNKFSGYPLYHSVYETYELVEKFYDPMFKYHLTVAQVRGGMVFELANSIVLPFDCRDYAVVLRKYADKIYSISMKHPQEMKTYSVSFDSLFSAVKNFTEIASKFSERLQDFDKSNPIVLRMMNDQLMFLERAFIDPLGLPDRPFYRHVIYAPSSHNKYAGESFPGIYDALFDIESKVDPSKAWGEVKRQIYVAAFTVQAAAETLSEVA
- test_details: Surface plasmon resonance assay (Biacore T200, single cycle kinetic)
- Assay type: binding
- study_conditions: PSMA SPR assay, hPSMA-Fc, 25° C.; pKD category; read-out: pKD CAT (converted)
Numbered stars: 1 amine (or outer) side, 2 acyl side, 3 side chain; on linkers, the order of the positions; unused ones are H or OH. Bridge positions count the residues as written; N and C are the ends. Square brackets hold non-standard residues; d marks the D form. Peptide text beside a SMILES is read from it. * marks the point of attachment. X7 = O=C(O)CN1CCN(CC(=O)O)CCN(CC(=O)NC2CCN(CC(=O)*)CC2)CCN(CC(=O)O)CC1; DOTA = O=C(O)CN1CCN(CC(=O)O)CCN(CC(=O)*)CCN(CC(=O)O)CC1; Phe(4-Cl) = N[C@@H](Cc1ccc(Cl)cc1)C(=O)O; Arg(Me) = CNC(=N)NCCC[C@H](N)C(=O)O; 3Pal = N[C@@H](Cc1cccnc1)C(=O)O; X1 = O=C(CC1CCN([*:1])CC1)[*:2]; Lys(Me) = CNCCCC[C@H](N)C(=O)O; Tle = CC(C)(C)[C@H](N)C(=O)O; Isovaleryl = CC(C)CC(=O)*; Aib = CC(C)(N)C(=O)O

CNCCCC[C@@H]1NC(=O)[C@@H](NC(=O)[C@H](Cc2cccnc2)NC(=O)C(C)(C)NC(=O)[C@@H](NC(=O)CC2CCN(C(=O)CN3CCN(CC(=O)O)CCN(CC(=O)O)CCN(CC(=O)O)CC3)CC2)[C@@H](C)O)CSSC[C@@H](C(=O)N[C@H](C(=O)N[C@H](C(N)=O)[C@@H](C)O)C(C)(C)C)NC(=O)[C@H](CC(N)=O)NC(=O)C(C)(C)NC(=O)[C@H](CCCNC(=N)NC)NC1=O [PSM-0296] ({DOTA}-[X1]T[Aib][3Pal]C[Lys(Me)][Arg(Me)][Aib]NC[Tle]T-NH2; disulfide 5-10)	126 to 501 nM

Okay, next one:
(Q) Which Kd value belongs to CC(C)CC(=O)NC(C)(C)C(=O)N[C@@H](Cc1ccc(Cl)cc1)C(=O)N[C@H]1CSSC[C@@H](C(=O)N[C@H](C(=O)N[C@H](C(N)=O)[C@@H](C)O)C(C)(C)C)NC(=O)[C@H](CC(N)=O)NC(=O)[C@H](CCCCNC(=O)CN2CCC(NC(=O)CN3CCN(CC(=O)O)CCN(CC(=O)O)CCN(CC(=O)O)CC3)CC2)NC(=O)[C@H](CCCNC(=N)N)NC(=O)[C@H](CCCCN)NC1=O [PSM-0353] (Isovaleryl-[Aib][Phe(4-Cl)]CKRK(X7)NC[Tle]T-NH2; disulfide 3-8) ?
(A) < 12.6 nM

* * *

- test_target: PSMA-expressing C4-2 cells (Homo sapiens, UniProt Q04609)
- Construct: PSMA-expressing C4-2 cells (ATCC, Cat. No. CRL-3314) were cultured in RPMI-1640; host or cells: C4-2 cells
- Sequence (Q04609 whole entry): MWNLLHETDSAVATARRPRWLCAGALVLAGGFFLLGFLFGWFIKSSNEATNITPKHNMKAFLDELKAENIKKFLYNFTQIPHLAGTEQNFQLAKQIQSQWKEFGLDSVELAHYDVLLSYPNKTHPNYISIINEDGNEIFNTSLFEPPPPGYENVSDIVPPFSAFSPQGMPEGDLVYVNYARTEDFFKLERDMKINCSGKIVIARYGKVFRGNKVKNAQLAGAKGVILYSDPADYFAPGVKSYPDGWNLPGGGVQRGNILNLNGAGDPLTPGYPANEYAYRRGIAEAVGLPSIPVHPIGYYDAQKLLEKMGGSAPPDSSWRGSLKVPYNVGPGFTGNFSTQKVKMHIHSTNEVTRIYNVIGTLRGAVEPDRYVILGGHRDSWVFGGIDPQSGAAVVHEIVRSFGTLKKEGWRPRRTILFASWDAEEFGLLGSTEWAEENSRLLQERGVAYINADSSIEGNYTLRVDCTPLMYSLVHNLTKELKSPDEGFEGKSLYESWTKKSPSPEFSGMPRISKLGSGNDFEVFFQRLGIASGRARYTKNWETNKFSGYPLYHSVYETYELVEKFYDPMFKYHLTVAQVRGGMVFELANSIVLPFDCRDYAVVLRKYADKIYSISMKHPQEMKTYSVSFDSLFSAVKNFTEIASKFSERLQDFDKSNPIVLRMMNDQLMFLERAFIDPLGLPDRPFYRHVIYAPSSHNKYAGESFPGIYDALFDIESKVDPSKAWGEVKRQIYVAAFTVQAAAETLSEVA
- test_details: FACS binding assay (competition with 50 nM PSM-0183)
- study_conditions: FACS binding, C4-2 cells, competition with 50 nM PSM-0183; category; read-out: pIC50 [C4-2] CAT (converted)
- Method: In order to determine binding of compounds according to the present invention to PSMA-expressing cells, a FACS binding assay was established. PSMA-expressing C4-2 cells (ATCC, Cat. No. CRL-3314) were cultured in RPMI-1640 (Pan Biotech, Cat. No. P04-18050) including 10% fetal calf serum (Biochrom) and 100 U/ml penicillin and 100 μg/mL streptomycin (Sigma, Cat. No. P0781). […]
Numbered stars: 1 amine (or outer) side, 2 acyl side, 3 side chain; on linkers, the order of the positions; unused ones are H or OH. Bridge positions count the residues as written; N and C are the ends. Square brackets hold non-standard residues; d marks the D form. Peptide text beside a SMILES is read from it. * marks the point of attachment. DOTA = O=C(O)CN1CCN(CC(=O)O)CCN(CC(=O)*)CCN(CC(=O)O)CC1; Phe(4-Cl) = N[C@@H](Cc1ccc(Cl)cc1)C(=O)O; Hyp = O=C(O)[C@@H]1C[C@@H](O)CN1; X1 = O=C(CC1CCN([*:1])CC1)[*:2]; Cit = NC(=O)NCCC[C@H](N)C(=O)O; Tle = CC(C)(C)[C@H](N)C(=O)O; 4Amb = NCc1ccc(C(=O)O)cc1; Nle = CCCC[C@H](N)C(=O)O; Aib = CC(C)(N)C(=O)O; Guanidino = N=C(N)N*
Below is a list of entries, each paired with its recorded IC50 value.

Known results for compounds:
CC(=O)N[C@H](C(=O)NC(C)(C)C(=O)N[C@@H](Cc1ccccc1)C(=O)N[C@H]1CSSC[C@@H](C(=O)N[C@H](C(=O)N[C@H](C(=O)N[C@@H](CC(=O)O)C(N)=O)[C@@H](C)O)C(C)(C)C)NC(=O)[C@H](CC(N)=O)NC(=O)[C@@H]2C[C@@H](O)CN2C(=O)[C@H](CCCNC(=N)N)NC(=O)[C@H](CCCCN)NC1=O)[C@@H](C)O [PSM-0181] (Ac-T[Aib]FCKR[Hyp]NC[Tle]TD-NH2; disulfide 4-9)	< 200 nM
CC(=O)N[C@H](C(=O)NC(C)(C)C(=O)N[C@@H](Cc1ccccc1)C(=O)N[C@H]1CSSC[C@@H](C(=O)N[C@H](C(=O)N[C@H](C(=O)N2CCC(CC(=O)N[C@H](CCCCNC(=O)CN3CCN(CC(=O)O)CCN(CC(=O)O)CCN(CC(=O)O)CC3)C(N)=O)CC2)[C@@H](C)O)C(C)(C)C)NC(=O)[C@H](CC(N)=O)NC(=O)C(C)(C)NC(=O)[C@H](CCCNC(N)=O)NC(=O)[C@H](CCCCN)NC1=O)[C@@H](C)O [PSM-0252] (Ac-T[Aib]FCK[Cit][Aib]NC[Tle]T[X1][dK](DOTA)-NH2; disulfide 4-9)	200 to 1260 nM
C[C@@H](O)[C@H](NC(=O)[C@@H](NC(=O)[C@@H]1CSSC[C@H](NC(=O)[C@H](Cc2ccccc2)NC(=O)C(C)(C)NC(=O)[C@@H](NC(=O)c2ccc(CNC(=O)CN3CCN(CC(=O)O)CCN(CC(=O)O)CCN(CC(=O)O)CC3)cc2)[C@@H](C)O)C(=O)N[C@@H](CCCCN)C(=O)N[C@@H](CCCNC(=N)N)C(=O)NC(C)(C)C(=O)N[C@@H](CC(N)=O)C(=O)N1)C(C)(C)C)C(N)=O [PSM-0202] ({DOTA-4Amb}-T[Aib]FCKR[Aib]NC[Tle]T-NH2; disulfide 4-9)	< 200 nM
C[C@@H](O)[C@H](NC(=O)[C@@H](NC(=O)[C@@H]1CSSC[C@H](NC(=O)[C@H](Cc2ccccc2)NC(=O)C(C)(C)NC(=O)[C@@H](NC(=O)CC2CCN(C(=O)CN3CCN(CC(=O)O)CCN(CC(=O)O)CCN(CC(=O)O)CC3)CC2)C(C)(C)C)C(=O)N[C@@H](CCCCN)C(=O)N[C@@H](CCCNC(=N)N)C(=O)NC(C)(C)C(=O)N[C@@H](CC(N)=O)C(=O)N1)C(C)(C)C)C(N)=O [PSM-0198] ({DOTA}-[X1][Tle][Aib]FCKR[Aib]NC[Tle]T-NH2; disulfide 5-10)	1260 to 3160 nM

The record that follows has no IC50 shown yet.
(Q) Quick check: IC50 of CCCC[C@@H]1NC(=O)[C@@H](NC(=O)[C@H](Cc2ccc(Cl)cc2)NC(=O)C(C)(C)NC(=O)[C@@H](NC(C)=O)[C@@H](C)O)CSSC[C@@H](C(=O)N[C@H](C(=O)N[C@H](C(N)=O)[C@@H](C)O)C(C)(C)C)NC(=O)[C@H](CC(N)=O)NC(=O)C(C)(C)NC(=O)[C@H](CCC(=O)NC(=N)N)NC1=O [PSM-0236] (Ac-T[Aib][Phe(4-Cl)]C[Nle]E(Guanidino)[Aib]NC[Tle]T-NH2; disulfide 4-9) ?
(A) < 200 nM
